This section lists IC50 readings for Mitogen-activated protein kinase 8 (Homo sapiens, UniProt P45983).
reported.endpoint: IC50 (µM)

COc1ccc(C(=O)N2CCN(C(=O)c3ccc(CNc4n[nH]c5ccccc45)cc3)CC2)cc1; 7.7
O=C(c1cccc(CNc2n[nH]c3ccccc23)c1)N1CCN(C(=O)c2c(F)cccc2Cl)CC1; 7.82
O=C(c1ccc(CNc2n[nH]c3ccccc23)cc1)N1CCN(C(=O)c2ccc(OC(F)(F)F)cc2)CC1; 7.68

I = O=C(c1ccc(CNc2n[nH]c3ccccc23)cc1)N1CCN(C(=O)c2ccccc2OC(F)(F)F)CC1
II = O=C1c2ccccc2C2=NNC3=CC=CC1C32 (centres undefined)
**Q:** Lower IC50: I or II ? Use the label to indicate which entry you chose.
**A:** II
(II: 0.0423 µM, I: 8.28 µM)

###

target: Voltage-gated inwardly rectifying potassium channel KCNH2 (Homo sapiens, UniProt Q12809)
Sequence (Q12809 whole entry): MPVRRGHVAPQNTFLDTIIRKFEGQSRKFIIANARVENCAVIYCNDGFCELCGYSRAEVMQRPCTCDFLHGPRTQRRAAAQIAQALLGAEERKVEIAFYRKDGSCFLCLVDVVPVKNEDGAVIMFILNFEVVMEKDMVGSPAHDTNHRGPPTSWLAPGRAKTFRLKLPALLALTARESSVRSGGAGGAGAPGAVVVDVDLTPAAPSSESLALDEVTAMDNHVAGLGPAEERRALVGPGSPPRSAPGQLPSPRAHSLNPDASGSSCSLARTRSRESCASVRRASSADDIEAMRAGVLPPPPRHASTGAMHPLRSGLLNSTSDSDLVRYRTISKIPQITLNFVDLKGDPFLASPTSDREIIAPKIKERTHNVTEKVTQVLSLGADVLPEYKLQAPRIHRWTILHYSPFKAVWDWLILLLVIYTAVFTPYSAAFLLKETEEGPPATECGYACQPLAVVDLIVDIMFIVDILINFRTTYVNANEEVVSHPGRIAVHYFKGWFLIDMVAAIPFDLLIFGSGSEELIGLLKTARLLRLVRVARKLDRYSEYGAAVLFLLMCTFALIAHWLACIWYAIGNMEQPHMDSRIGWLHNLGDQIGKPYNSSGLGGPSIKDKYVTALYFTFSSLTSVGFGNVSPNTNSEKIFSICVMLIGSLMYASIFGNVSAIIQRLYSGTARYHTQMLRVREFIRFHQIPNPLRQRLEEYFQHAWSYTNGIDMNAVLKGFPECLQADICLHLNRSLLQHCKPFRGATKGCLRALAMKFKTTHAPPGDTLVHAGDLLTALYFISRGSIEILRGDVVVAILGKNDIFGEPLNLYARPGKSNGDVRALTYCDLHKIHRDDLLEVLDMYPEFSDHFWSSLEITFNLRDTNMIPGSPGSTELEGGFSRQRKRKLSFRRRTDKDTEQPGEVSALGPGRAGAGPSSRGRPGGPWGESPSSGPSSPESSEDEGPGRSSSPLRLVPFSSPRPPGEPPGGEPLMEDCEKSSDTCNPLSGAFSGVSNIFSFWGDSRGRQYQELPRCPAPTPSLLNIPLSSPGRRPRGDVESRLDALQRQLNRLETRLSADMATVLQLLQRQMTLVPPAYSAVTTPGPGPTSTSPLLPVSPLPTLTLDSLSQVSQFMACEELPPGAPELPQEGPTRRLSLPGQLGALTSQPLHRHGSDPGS
reported.endpoint: IC50

**Q:** Sample "O=C(c1cccc(CNc2n[nH]c3cccc(Cl)c23)c1)N1CCN(C(=O)c2ccc(Cl)cc2Cl)CC1" — what was its IC50?
**A:** > 30 µM

###

This section lists IC50 readings for Mitogen-activated protein kinase 10 (Homo sapiens).
reported.endpoint: IC50 (nM)

Reference set, count: 5
Cc1ccc(Cl)c(C(=O)N2CCN(C(=O)c3ccc(CNc4n[nH]c5ccccc45)cc3)CC2)c1; 588
O=C(c1ccc(CNc2n[nH]c3ccccc23)cc1)N1CCN(C(=O)c2ccccc2I)CC1; 399
O=C(c1ccc(CNc2n[nH]c3ccccc23)cc1)N1CCN(C(=O)c2ccc(OC(F)(F)F)cc2)CC1; 325
O=C(c1ccc(CNc2n[nH]c3ccccc23)cc1)N1CCN(C(=O)c2c(Cl)cccc2Cl)CC1; 279
O=C(Nc1cc(C(F)(F)F)cc(C(F)(F)F)c1)N1CCN(C(=O)c2ccc(CNc3n[nH]c4ccccc34)cc2)CC1; 8030

1 = O=C(c1cccc(CNc2n[nH]c3cc(Cl)ccc23)c1)N1CCN(C(=O)c2ccc(Cl)cc2Cl)CC1
2 = O=C(c1cccc(CNc2n[nH]c3ccccc23)c1)N1CCN(C(=O)c2ccc(Cl)cc2Cl)CC1
3 = O=C(c1ccc(CNc2n[nH]c3ccccc23)cc1)N1CCCC1
4 = O=C(c1ccc(CNc2n[nH]c3ccccc23)cc1)N1CCN(C(=O)c2cccc(C(F)(F)F)c2)CC1
5 = O=C(c1ccc(CNc2n[nH]c3ccccc23)cc1)N1CCN(C(=O)c2ccccc2OC(F)(F)F)CC1
**Q:** Ascending sort, IC50. Provide the labels, sequenced as the question asks.
**A:** 1, 5, 4, 2, 3
(1: 239 nM, 5: 394 nM, 4: 927 nM, 2: 4030 nM, 3: 7510 nM)

###

biological target: Cyclin-dependent kinase-like 3 (Homo sapiens)
Sequence (Q8IVW4 whole entry): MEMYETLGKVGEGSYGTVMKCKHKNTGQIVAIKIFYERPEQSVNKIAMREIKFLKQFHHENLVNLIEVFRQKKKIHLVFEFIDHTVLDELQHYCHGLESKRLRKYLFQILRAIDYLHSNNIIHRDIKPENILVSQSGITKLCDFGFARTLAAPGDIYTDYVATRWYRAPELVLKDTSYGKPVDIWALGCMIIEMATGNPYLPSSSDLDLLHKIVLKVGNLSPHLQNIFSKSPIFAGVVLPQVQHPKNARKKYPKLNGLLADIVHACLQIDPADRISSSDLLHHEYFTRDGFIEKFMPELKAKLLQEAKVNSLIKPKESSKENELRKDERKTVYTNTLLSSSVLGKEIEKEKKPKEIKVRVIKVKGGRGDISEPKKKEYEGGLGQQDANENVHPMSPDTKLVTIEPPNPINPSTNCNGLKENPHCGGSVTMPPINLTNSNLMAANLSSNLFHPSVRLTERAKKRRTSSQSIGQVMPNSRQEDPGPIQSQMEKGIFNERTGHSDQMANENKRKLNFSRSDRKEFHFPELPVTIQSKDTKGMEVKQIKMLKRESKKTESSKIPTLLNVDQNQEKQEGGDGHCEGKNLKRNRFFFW
reported.endpoint: pIC50
Worth noting: pIC50 values are minus log10 of concentrations stated in mol/L.

**Q:** Sample "O=C(c1cccc(CNc2n[nH]c3cccc(Cl)c23)c1)N1CCN(C(=O)c2ccc(Cl)cc2Cl)CC1" — what was its pIC50?
**A:** 6.17

###

target: Mitogen-activated protein kinase 8 (Homo sapiens, UniProt P45983)
Sequence (P45983 whole entry): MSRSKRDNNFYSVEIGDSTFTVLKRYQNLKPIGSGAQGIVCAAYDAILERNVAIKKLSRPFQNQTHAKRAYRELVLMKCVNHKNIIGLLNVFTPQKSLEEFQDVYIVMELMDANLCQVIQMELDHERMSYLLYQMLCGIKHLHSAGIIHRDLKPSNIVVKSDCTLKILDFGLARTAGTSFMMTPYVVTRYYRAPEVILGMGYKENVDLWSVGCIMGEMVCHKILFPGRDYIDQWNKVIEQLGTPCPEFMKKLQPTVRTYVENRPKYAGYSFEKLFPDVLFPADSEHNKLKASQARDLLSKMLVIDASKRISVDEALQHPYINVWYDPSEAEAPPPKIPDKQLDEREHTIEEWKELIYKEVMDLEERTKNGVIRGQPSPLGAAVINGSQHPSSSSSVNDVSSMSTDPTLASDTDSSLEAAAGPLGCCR
reported.endpoint: IC50 (µM)

O=C(Nc1ccccc1Cl)N1CCN(C(=O)c2ccc(CNc3n[nH]c4ccccc34)cc2)CC1; 7.79
O=C(c1ccc(Cl)cc1)N1CCN(C(=O)c2ccc(CNc3n[nH]c4ccccc34)cc2)CC1; 8.82
O=C(c1cccc(CNc2n[nH]c3cccc(F)c23)c1)N1CCN(C(=O)c2ccc(Cl)cc2Cl)CC1; 8
O=C(c1ccc(CNc2n[nH]c3ccccc23)cc1)N1CCN(C(=O)c2c(Cl)cccc2C(F)(F)F)CC1; 7.66
O=C(c1ccc(CNc2n[nH]c3ccccc23)cc1)N1CCN(C(=O)c2cccc(F)c2Cl)CC1; 8.91
O=C(NN1CCCCC1)c1ccc(CNc2n[nH]c3ccccc23)cc1; 9.06
O=C(c1cccc(CNc2n[nH]c3ccccc23)c1)N1CCN(C(=O)c2ccc(Cl)cc2Cl)CC1; 7.59
O=C(c1ccc(CNc2n[nH]c3ccccc23)cc1)N1CCCC1; 8.07
O=C(c1ccc(CNc2n[nH]c3ccccc23)cc1)N1CCN(C(=O)c2ccc(F)cc2Cl)CC1; 9.07
O=C(c1ccc(CNc2n[nH]c3ccccc23)cc1)N1CCN(C(=O)c2ccc(Br)cc2Br)CC1; 8.85
O=C(c1ccc(CNc2n[nH]c3ccccc23)cc1)N1CCN(C(=O)c2cc(Cl)ccc2Cl)CC1; 7.61
O=C(c1ccc(CNc2n[nH]c3ccccc23)cc1)N1CCN(C(=O)c2cc(C(F)(F)F)ccc2Cl)CC1; 9.87

The measured values listed here are drawn from ChEMBL document CHEMBL5316320.
